Tested on: DeltatarO mutant
assay-info: S. aureus survival, RN4220 and DeltatarO strains – OD600, teichoic acid synthesis inhibitors, primary screen (AID 463173)
condition-context: S. aureus RN4220 wild type/DeltatarO growth, OD600, 18 h, screened at 18.75 µg/mL (by protocol)
Out of some 52,000 compounds screened, about 4,300 (8.3%) were called active. No stated cut-off is given here; in the data, active means survival mostly below about 52% (no sharp cut-off); inactive means mostly above about 56%. This excerpt belongs to a sample that is enriched for actives.
Select the matching outcome among active, inactive

O=c1oc2cc(Br)ccc2n1CO inactive
COc1ccc(-n2nc(C(=O)Nc3cccc(C(F)(F)F)c3)c3c4ccccc4n(C)c3c2=O)cc1 inactive

Please indicate how the test categorized Cc1ccc2nc(NCc3ccc(F)cc3)c3nncn3c2c1 .
inactive

Please indicate how the test categorized Cc1cccc(Cn2c(Cc3ccccc3)nc3ccccc32)c1 .
active

Please indicate how the test categorized Cc1cc(F)ccc1Nc1nc2ccc(Cl)cc2n2cnnc12 .
inactive

Please indicate how the test categorized O=C(O)c1cccnc1N1CCOCC1 .
inactive
